assay type: physicochemical, Sphingobium japonicum UT26; details: compared to the wild type LinB
PROPERTY_LABEL: ΔTm
Give the value; after it, write the unit.

Worked cases, answers included:
# MOLECULE, PROPERTY_LABEL, ASSAY_RESULT
records = [
    ("L177M: LinB variant in the position 177 (protein, UniProt D4Z2G1 2-296, looked up, variant L177M) Haloalkane dehalogenase: SLGAKPFGEKKFIEIKGRRMAYIDEGTGDPILFQHGNPTSSYLWRNIMPHCAGLGRLIACDLIGMGDSDKLDPSGPERYAYAEHRDYLDALWEALDLGDRVVLVVHDWGSALGFDWARRHRERVQGIAYMEAIAMPIEWADFPEQDRDLFQAFRSQAGEELVLQDNVFVEQVLPGMILRPLSEAEMAAYREPFLAAGEARRPTLSWPRQIPIAGTPADVVAIARDYAGWLSESPIPKLFINAEPGALTTGRMRDFCRTWPNQTEITVAGAHFIQEDSPDEIGAAIAAFVRRLRPA", "ΔTm", "−0.3 °C"),
    ("L177H: LinB variant in the position 177 (protein, UniProt D4Z2G1 2-296, looked up, variant L177H) Haloalkane dehalogenase: SLGAKPFGEKKFIEIKGRRMAYIDEGTGDPILFQHGNPTSSYLWRNIMPHCAGLGRLIACDLIGMGDSDKLDPSGPERYAYAEHRDYLDALWEALDLGDRVVLVVHDWGSALGFDWARRHRERVQGIAYMEAIAMPIEWADFPEQDRDLFQAFRSQAGEELVLQDNVFVEQVLPGHILRPLSEAEMAAYREPFLAAGEARRPTLSWPRQIPIAGTPADVVAIARDYAGWLSESPIPKLFINAEPGALTTGRMRDFCRTWPNQTEITVAGAHFIQEDSPDEIGAAIAAFVRRLRPA", "ΔTm", "0.8 °C"),
]

Item L177Q: LinB variant in the position 177 (protein, UniProt D4Z2G1 2-296, looked up, variant L177Q) Haloalkane dehalogenase: SLGAKPFGEKKFIEIKGRRMAYIDEGTGDPILFQHGNPTSSYLWRNIMPHCAGLGRLIACDLIGMGDSDKLDPSGPERYAYAEHRDYLDALWEALDLGDRVVLVVHDWGSALGFDWARRHRERVQGIAYMEAIAMPIEWADFPEQDRDLFQAFRSQAGEELVLQDNVFVEQVLPGQILRPLSEAEMAAYREPFLAAGEARRPTLSWPRQIPIAGTPADVVAIARDYAGWLSESPIPKLFINAEPGALTTGRMRDFCRTWPNQTEITVAGAHFIQEDSPDEIGAAIAAFVRRLRPA has what recorded ΔTm?
0.0 °C
